target-or-system: Amyloid-beta precursor protein (Homo sapiens, UniProt P05067)
Sequence (P05067 whole entry): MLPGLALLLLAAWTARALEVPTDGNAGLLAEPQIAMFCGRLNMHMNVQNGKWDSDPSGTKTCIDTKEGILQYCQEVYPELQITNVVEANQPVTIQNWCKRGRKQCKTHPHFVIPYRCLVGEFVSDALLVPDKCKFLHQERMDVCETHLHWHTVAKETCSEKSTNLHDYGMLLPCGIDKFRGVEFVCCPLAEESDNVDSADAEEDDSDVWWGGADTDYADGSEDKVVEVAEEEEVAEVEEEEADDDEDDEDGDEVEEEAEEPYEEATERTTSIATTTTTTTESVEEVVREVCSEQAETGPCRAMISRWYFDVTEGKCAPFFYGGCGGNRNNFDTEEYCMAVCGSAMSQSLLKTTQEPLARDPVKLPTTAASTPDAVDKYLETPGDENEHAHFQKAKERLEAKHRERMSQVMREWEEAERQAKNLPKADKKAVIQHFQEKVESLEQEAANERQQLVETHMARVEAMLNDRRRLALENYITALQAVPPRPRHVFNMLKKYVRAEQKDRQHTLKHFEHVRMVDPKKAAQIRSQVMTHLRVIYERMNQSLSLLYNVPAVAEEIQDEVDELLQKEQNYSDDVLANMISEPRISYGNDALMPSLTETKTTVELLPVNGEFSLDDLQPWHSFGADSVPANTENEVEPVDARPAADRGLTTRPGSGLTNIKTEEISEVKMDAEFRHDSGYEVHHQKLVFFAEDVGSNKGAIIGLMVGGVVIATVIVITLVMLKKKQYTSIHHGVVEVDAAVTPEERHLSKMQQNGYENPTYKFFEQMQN
test: Binding affinity to fibrillar amyloid beta (1 to 40) (unknown origin) assessed as fluorescence intensity relative to Methoxy-X04
property-name: RFU
The answer should be a number; do not append a unit.

Item: `COc1cc(/C=C/c2ccc(C(F)(F)C(F)F)cc2)ccc1/C=C/c1ccc(C(F)(F)C(F)F)cc1` | RFU: 1

Item: `Oc1ccc(/C=C/c2ccc(/C=C/c3ccc(O)cc3)c(OCC(F)(F)F)c2)cc1` | RFU: 7

Item: `COc1cc(/C=C/c2ccc(CO)cc2)ccc1/C=C/c1ccc(CO)cc1` | RFU: 26

Item: `Oc1ccc(/C=C/c2ccc(/C=C/c3ccc(O)cc3)c(OC(C(F)(F)F)(C(F)(F)F)C(F)(F)F)c2)cc1` | RFU: 38

Item: `Oc1ccc(/C=C/c2ccc(/C=C/c3ccc(O)cc3)c(C(F)(F)F)c2)cc1` | RFU: 19

====

target-or-system: Amyloid-beta precursor protein (Homo sapiens, UniProt P05067)
test: Binding affinity to beta-amyloid plaque in Alzheimer's disease patient brain at 10 uM by fluorescence microscopic analysis
Activity calls are given as the source filed them. The calls are words filed in the database; no cut-off is given here.
Please reply with one of these outcomes: 1 = active, 0 = inactive

Prompt: What call does the record list for `Oc1cc(/C=C/c2ccc(C(F)(F)F)cc2)ccc1/C=C/c1ccc(C(F)(F)F)cc1` ?
Completion: 1

Prompt: What call does the record list for `Oc1cc(/C=C/c2ccc(OC(F)(F)F)cc2)ccc1/C=C/c1ccc(OC(F)(F)F)cc1` ?
Completion: 1

Prompt: What call does the record list for `Oc1ccc(/C=C/c2ccc(/C=C/c3ccc(O)cc3)c(OC(C(F)(F)F)(C(F)(F)F)C(F)(F)F)c2)cc1` ?
Completion: 1

Prompt: What call does the record list for `COc1cc(/C=C/c2ccc(C(F)(F)F)cc2)ccc1/C=C/c1ccc(C(F)(F)F)cc1` ?
Completion: 1

Prompt: What call does the record list for `COc1cc(/C=C/c2ccc(OC(F)(F)F)cc2)ccc1/C=C/c1ccc(OC(F)(F)F)cc1` ?
Completion: 1

Prompt: What call does the record list for `Oc1ccc(/C=C/c2ccc(/C=C/c3ccc(O)cc3)c(OCCCC(F)(F)F)c2)cc1` ?
Completion: 0

Prompt: What call does the record list for `Oc1ccc(/C=C/c2ccc(/C=C/c3ccc(O)cc3)c(C(F)(F)F)c2)cc1` ?
Completion: 0

Prompt: What call does the record list for `COc1cc(/C=C/c2ccc(OC)c(C(F)(F)F)c2)ccc1/C=C/c1ccc(OC)c(C(F)(F)F)c1` ?
Completion: 0

Prompt: What call does the record list for `COc1cc(/C=C/c2ccc(O)cc2)ccc1/C=C/c1ccc(O)cc1` ?
Completion: 1

====

Assignment: determine reported pKi for the given compounds.
target-or-system: Amyloid-beta precursor protein (Homo sapiens, UniProt P05067)
test: Displacement of [3H]chrysamine G from fibrillar amyloid beta (1 to 40) (unknown origin) after 1 hr by liquid scintillation spectrophotometric analysis
Scale: pKi equals -log10([C]), with [C] in mol/L.

Item: `Oc1ccc(/C=C/c2ccc(/C=C/c3ccc(O)cc3)c(OCC(F)(F)F)c2)cc1` | pKi: 7.41

Item: `Oc1ccc(/C=C/c2ccc(/C=C/c3ccc(O)cc3)c(C(F)(F)F)c2)cc1` | pKi: 6.61

Item: `COc1cc(/C=C/c2ccc(O)cc2)ccc1/C=C/c1ccc(O)cc1` | pKi: 7.62

Item: `Oc1ccc(/C=C/c2ccc(/C=C/c3ccc(O)cc3)c(OCCCC(F)(F)F)c2)cc1` | pKi: 7.25

Item: `Oc1ccc(/C=C/c2ccc(/C=C/c3ccc(O)cc3)c(OC(C(F)(F)F)(C(F)(F)F)C(F)(F)F)c2)cc1` | pKi: 7.07

====

target-or-system: Amyloid-beta precursor protein (Homo sapiens)
test: Binding affinity to beta-amyloid plaque in APP/PS1 transgenic mouse brain at 100 uM by fluorescence microscopic analysis
Assay type: tissue-based
Activity calls are given as the source filed them. No cut-off for these calls is given here.
property-name: Activity

Recorded results for 5 compounds are shown here.
Oc1cc(/C=C/c2ccc(C(F)(F)F)cc2)ccc1/C=C/c1ccc(C(F)(F)F)cc1	Active
Oc1cc(/C=C/c2ccc(OC(F)(F)F)cc2)ccc1/C=C/c1ccc(OC(F)(F)F)cc1	Active
COc1cc(/C=C/c2ccc(O)cc2)ccc1/C=C/c1ccc(O)cc1	Active
Oc1cc(/C=C/c2ccc(C(F)(F)C(F)F)cc2)ccc1/C=C/c1ccc(C(F)(F)C(F)F)cc1	Active
COc1cc(/C=C/c2ccc(OC)c(C(F)(F)F)c2)ccc1/C=C/c1ccc(OC)c(C(F)(F)F)c1	Active

Item: `Oc1ccc(/C=C/c2ccc(/C=C/c3ccc(O)cc3)c(C(F)(F)F)c2)cc1` | Activity: Active

Item: `COc1cc(/C=C/c2ccc(C(F)(F)F)cc2)ccc1/C=C/c1ccc(C(F)(F)F)cc1` | Activity: Active

Item: `Oc1ccc(/C=C/c2ccc(/C=C/c3ccc(O)cc3)c(OCC(F)(F)F)c2)cc1` | Activity: Active

Item: `COc1cc(/C=C/c2ccc(CO)cc2)ccc1/C=C/c1ccc(CO)cc1` | Activity: Active

Item: `COc1cc(/C=C/c2ccc(OC(F)(F)F)cc2)ccc1/C=C/c1ccc(OC(F)(F)F)cc1` | Activity: Active

Item: `COc1cc(/C=C/c2ccc(C(F)(F)C(F)F)cc2)ccc1/C=C/c1ccc(C(F)(F)C(F)F)cc1` | Activity: Active

Item: `Oc1ccc(/C=C/c2ccc(/C=C/c3ccc(O)cc3)c(OC(C(F)(F)F)(C(F)(F)F)C(F)(F)F)c2)cc1` | Activity: Active

====

target-or-system: Amyloid-beta precursor protein (Homo sapiens, UniProt P05067)
test: Binding affinity to fibrillar amyloid beta (1 to 40) (unknown origin) assessed as fluorescence intensity relative to Methoxy-X04
property-name: RFU
The answer should be a number; do not append a unit.

Item: `Oc1ccc(/C=C/c2ccc(/C=C/c3ccc(O)cc3)c(OCCCC(F)(F)F)c2)cc1` | RFU: 2

Item: `COc1cc(/C=C/c2ccc(OC)c(C(F)(F)F)c2)ccc1/C=C/c1ccc(OC)c(C(F)(F)F)c1` | RFU: 4

Item: `COc1cc(/C=C/c2ccc(O)cc2)ccc1/C=C/c1ccc(O)cc1` | RFU: 100

Item: `Oc1cc(/C=C/c2ccc(C(F)(F)F)cc2)ccc1/C=C/c1ccc(C(F)(F)F)cc1` | RFU: 2

Item: `Oc1cc(/C=C/c2ccc(OC(F)(F)F)cc2)ccc1/C=C/c1ccc(OC(F)(F)F)cc1` | RFU: 13

Item: `COc1cc(/C=C/c2ccc(OC(F)(F)F)cc2)ccc1/C=C/c1ccc(OC(F)(F)F)cc1` | RFU: 3

Item: `COc1cc(/C=C/c2ccc(C(F)(F)F)cc2)ccc1/C=C/c1ccc(C(F)(F)F)cc1` | RFU: 1

====

System: Mus musculus
test: Binding affinity to beta-amyloid plaque in APP/PS1 transgenic mouse brain at 30 umol/kg, iv after 1 day by fluorescence microscopic analysis
Assay type: functional, organism-based
Activity calls are given as the source filed them. The calls are words filed in the database; no cut-off is given here.
Please reply with one of these outcomes: true (1) for active, false (0) for inactive

Prompt: What call does the record list for `COc1cc(/C=C/c2ccc(CO)cc2)ccc1/C=C/c1ccc(CO)cc1` ?
Completion: true (1)

Prompt: What call does the record list for `COc1cc(/C=C/c2ccc(O)cc2)ccc1/C=C/c1ccc(O)cc1` ?
Completion: true (1)

Prompt: What call does the record list for `COc1cc(/C=C/c2ccc(OC)c(C(F)(F)F)c2)ccc1/C=C/c1ccc(OC)c(C(F)(F)F)c1` ?
Completion: false (0)

Prompt: What call does the record list for `Oc1ccc(/C=C/c2ccc(/C=C/c3ccc(O)cc3)c(OCC(F)(F)F)c2)cc1` ?
Completion: true (1)

Prompt: What call does the record list for `Oc1ccc(/C=C/c2ccc(/C=C/c3ccc(O)cc3)c(C(F)(F)F)c2)cc1` ?
Completion: true (1)

Prompt: What call does the record list for `COc1cc(/C=C/c2ccc(C(F)(F)C(F)F)cc2)ccc1/C=C/c1ccc(C(F)(F)C(F)F)cc1` ?
Completion: true (1)

Prompt: What call does the record list for `Oc1cc(/C=C/c2ccc(C(F)(F)C(F)F)cc2)ccc1/C=C/c1ccc(C(F)(F)C(F)F)cc1` ?
Completion: true (1)

Prompt: What call does the record list for `Oc1cc(/C=C/c2ccc(C(F)(F)F)cc2)ccc1/C=C/c1ccc(C(F)(F)F)cc1` ?
Completion: true (1)

Prompt: What call does the record list for `COc1cc(/C=C/c2ccc(C(F)(F)F)cc2)ccc1/C=C/c1ccc(C(F)(F)F)cc1` ?
Completion: true (1)

Prompt: What call does the record list for `Oc1ccc(/C=C/c2ccc(/C=C/c3ccc(O)cc3)c(OCCCC(F)(F)F)c2)cc1` ?
Completion: true (1)

Prompt: What call does the record list for `COc1cc(/C=C/c2ccc(O)cc2)c(OC)cc1/C=C/c1ccc(O)cc1` ?
Completion: false (0)

Prompt: What call does the record list for `Oc1ccc(/C=C/c2ccc(/C=C/c3ccc(O)cc3)c(OC(C(F)(F)F)(C(F)(F)F)C(F)(F)F)c2)cc1` ?
Completion: true (1)

Prompt: What call does the record list for `Oc1cc(/C=C/c2ccc(OC(F)(F)F)cc2)ccc1/C=C/c1ccc(OC(F)(F)F)cc1` ?
Completion: true (1)

Prompt: What call does the record list for `COc1cc(/C=C/c2ccc(OC(F)(F)F)cc2)ccc1/C=C/c1ccc(OC(F)(F)F)cc1` ?
Completion: true (1)

Each recorded value in this set is attributed to ChEMBL document CHEMBL3232800.
